In what follows, each item is paired with its IC50 for Jak3 (Homo sapiens, UniProt P52333).

N#Cc1ccc2ncn(-c3ncc4nc(-c5cccnc5)n([C@@H]5CCOc6c(F)cccc65)c4n3)c2c1 = < 100 nM
Cc1nc2cnc(-n3cnc4ccc(Cl)cc43)nc2n1[C@H](C)C(=O)NCC(F)(F)F = < 100 nM
COc1ccccc1-c1nc2cnc(-n3cnc4ccc(C#N)cc43)nc2n1C1CCOCC1 = 100 to 1000 nM
O=c1ccc(-c2nc3cnc(-n4cnc5ccc(F)cc54)nc3n2C2CCOCC2)c[nH]1 = 100 to 1000 nM
c1ccc(Cn2c(-c3ccccc3)nc3cnc(-n4cnc5ccccc54)nc32)cc1 = > 1000 nM
CO[C@H]1CC[C@H](n2c(C)nc3cnc(-n4cnc5ccc(Cl)cc54)nc32)CC1 = 100 to 1000 nM
Fc1ccc2ncn(-c3ncc4nc(-c5ccc(F)nc5)n(C5CCOCC5)c4n3)c2c1 = < 100 nM
Fc1ccc2ncn(-c3ncc4nc(-c5ccc(Br)nc5)n(C5CCOCC5)c4n3)c2c1 = < 100 nM

Send back Jak3 (Homo sapiens, UniProt P52333) IC50 of Fc1ccc2ncn(-c3ncc4nc(-c5ccoc5)n(C5CCOCC5)c4n3)c2c1 only. < 100 nM

Send back Jak3 (Homo sapiens, UniProt P52333) IC50 of CCc1nc2cnc(-n3cnc4ccc(F)cc43)nc2n1[C@@H]1CCOc2ccccc21 only. < 100 nM

Send back Jak3 (Homo sapiens, UniProt P52333) IC50 of Fc1ccc2ncn(-c3ncc4nc(-c5ccncc5)n(C5CCOCC5)c4n3)c2c1 only. < 100 nM
